Measured values drawn from patent US20210388087A1 for this set.

- measuredOn: T1, Human CD3eg linker (human)
- T1 construct: Single-chain construct; also called recombinant human CD3
- T1 chain: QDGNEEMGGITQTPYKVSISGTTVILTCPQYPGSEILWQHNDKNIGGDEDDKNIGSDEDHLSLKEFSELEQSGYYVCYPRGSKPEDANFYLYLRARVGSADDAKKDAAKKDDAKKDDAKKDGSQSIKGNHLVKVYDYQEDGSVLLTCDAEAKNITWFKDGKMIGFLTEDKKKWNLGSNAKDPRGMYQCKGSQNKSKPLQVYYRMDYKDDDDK
- measurementProtocol: SPR; fold vs parent H183/L072
Please respond with reported fold change of affinity for every item in the list.
API: value field is a number in fold; no unit string.

Quick one: fold change of affinity for H183/L072 VL Q24T (antibody, name in Kabat numbering, V domains shown) VH: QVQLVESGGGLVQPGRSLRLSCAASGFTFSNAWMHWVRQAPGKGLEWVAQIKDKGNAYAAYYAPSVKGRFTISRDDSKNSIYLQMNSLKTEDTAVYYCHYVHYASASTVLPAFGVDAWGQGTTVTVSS VL: DIVMTQSPLSLPVTPGEPASISCTASQELVHMNRNTYLHWYQQKPGQAPRLLIYKVSNRFPGVPDRFSGSGSGTDFTLKISRVEAEDVGVYYCAQGTSVPFTFGQGTKLEIK ?
1.1

Quick one: fold change of affinity for H183/L072 VL V27cL (antibody, name in Kabat numbering, V domains shown) VH: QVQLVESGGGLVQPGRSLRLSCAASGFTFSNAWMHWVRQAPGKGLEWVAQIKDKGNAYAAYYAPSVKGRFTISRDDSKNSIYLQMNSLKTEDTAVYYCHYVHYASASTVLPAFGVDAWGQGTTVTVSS VL: DIVMTQSPLSLPVTPGEPASISCQASQELLHMNRNTYLHWYQQKPGQAPRLLIYKVSNRFPGVPDRFSGSGSGTDFTLKISRVEAEDVGVYYCAQGTSVPFTFGQGTKLEIK ?
0.8

Quick one: fold change of affinity for H183/L072 VL N30R (antibody, name in Kabat numbering, V domains shown) VH: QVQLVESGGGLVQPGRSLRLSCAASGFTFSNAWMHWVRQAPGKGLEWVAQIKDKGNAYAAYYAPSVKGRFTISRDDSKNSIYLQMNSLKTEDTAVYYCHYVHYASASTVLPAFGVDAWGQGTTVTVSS VL: DIVMTQSPLSLPVTPGEPASISCQASQELVHMNRRTYLHWYQQKPGQAPRLLIYKVSNRFPGVPDRFSGSGSGTDFTLKISRVEAEDVGVYYCAQGTSVPFTFGQGTKLEIK ?
1.5
